Reference for the values: patent US11197862B2

# tested-target: OCT3 (Homo sapiens)
# Sequence (O75751 whole entry): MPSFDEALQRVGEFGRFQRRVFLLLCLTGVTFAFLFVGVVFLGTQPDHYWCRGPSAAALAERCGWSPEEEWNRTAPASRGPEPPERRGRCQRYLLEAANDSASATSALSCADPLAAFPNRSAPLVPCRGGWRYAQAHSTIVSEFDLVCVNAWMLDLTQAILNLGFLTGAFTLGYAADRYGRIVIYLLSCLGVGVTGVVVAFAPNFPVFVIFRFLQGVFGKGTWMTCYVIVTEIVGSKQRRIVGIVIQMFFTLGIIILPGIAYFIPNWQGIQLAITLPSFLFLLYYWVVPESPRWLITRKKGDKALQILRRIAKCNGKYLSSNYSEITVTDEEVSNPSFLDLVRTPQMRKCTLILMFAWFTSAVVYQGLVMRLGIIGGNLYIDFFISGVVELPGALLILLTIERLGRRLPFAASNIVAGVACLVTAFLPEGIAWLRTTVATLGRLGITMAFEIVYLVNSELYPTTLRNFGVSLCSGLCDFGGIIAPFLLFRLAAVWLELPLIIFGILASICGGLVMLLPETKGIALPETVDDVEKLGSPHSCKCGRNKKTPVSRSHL
# experiment-description: Inhibition of OCT3-mediated oxaliplatin transport in human serum or 4% BSA HBSS
pIC50: −log10 of the molar value.

{"columns": ["molecule", "tested-target", "measurement-qualifier", "pIC50"],
 "data": [
  ["C[C@@H]1CCO[C@H]2Cn3cc(C(=O)NCc4ccc(F)cc4F)c(=O)c(O)c3C(=O)N12", "OCT3 (Homo sapiens)", "<", 4.00],
  ["Clc1ccc(COC(Cn2ccnc2)c2ccc(Cl)cc2Cl)c(Cl)c1 (stereo not drawn)", "OCT3 (Homo sapiens)", "=", 4.31],
  ["COc1cc(OC)c(C(=O)CCCN2CCCC2)c(OC)c1", "OCT3 (Homo sapiens)", "=", 4.55]
]}
